B1: minF1; the commonest letter at each place (parent)
chain: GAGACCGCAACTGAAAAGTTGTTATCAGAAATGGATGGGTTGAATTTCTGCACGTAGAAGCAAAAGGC

Variants of: B1
method-summary: fraction ligated after 30 min (ligated reads / total reads); higher = more ligase activity
measurement-context: with F1*subA RNA substrate (template-directed ligation), 42 °C
Readings of fraction ligated for the listed variants
Number only, no unit.

GAGACCGCAACTGAAAAGTTGTTATCAGAAATTGCTGGGTTGAATTTCTGCACGTAGAAGCAAAAGGC [G33T A35C] = 0.0181
GAGACCGCAACTGAAAAGTTGTTATCAGAAATCGATGGGTTGACTTTCTGCACGTAGAAGCAAAAGGC [G33C A44C] = 0.383
GAGACCGCAACTGAAAAGTTGTTATCAGAAATGCATGGGTTGACTTTCTGCACGTAGAAGCAAAAGGC [G34C A44C] = 0.00339
GAGACCGCAACTGAAAAGTTGTTATCACAAAGGGATGGGTTGAATTTCTGCACGTAGAAGCAAAAGGC [G28C T32G] = 0.0241
GAGACCGCAACTGAAAAGTTGTTATCACAAATGGAAGGGTTGAATTTCTGCACGTAGAAGCAAAAGGC [G28C T36A] = 0.0306

// query Indicate its recorded fraction ligated; the variant in question is GAGACCGCAACTGAAAAGTTGTTATCAGAATTGGATGGGTTGATTTTCTGCACGTAGAAGCAAAAGGC [A31T A44T]
// result 0.814

// query Give recorded fraction ligated. GAGACCGCAACTGAAAAGTTGTAATGAGAAATGGATGGGTTGAATTTCTGCACGTAGAAGCAAAAGGC [T23A C26G]
// result 0.00512
